Target: T1, human CD3 on CD3+ Jurkat cells (human, UniProt P07766 23-207)
T1 construct: whole, on cells; Native CD3 complex on cells; the other CD3 chains are not specified for this assay; also called Human CD3+ Jurkat
T1 sequence (P07766 23-207): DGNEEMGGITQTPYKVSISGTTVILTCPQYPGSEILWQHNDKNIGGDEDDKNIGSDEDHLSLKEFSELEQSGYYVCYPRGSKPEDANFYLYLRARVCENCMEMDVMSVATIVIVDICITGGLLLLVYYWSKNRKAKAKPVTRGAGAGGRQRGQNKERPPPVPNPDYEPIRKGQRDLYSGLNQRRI
Assay: flow cytometry, 100 nM IgG on CD3+ Jurkat cells, pH 7.4
QUANTITY_NAME: MFI pH 7.4 (MFI)
Response body: numeric value in MFI, unit text excluded.

May I ask what MFI pH 7.4 has been recorded for SAD10319_P01_F02 (ADI-48624) (antibody, V domains shown, IgG; also called Ab241) VH: QVQLVQSGAEVKKPGASVKVSCKASGYTFESYDMHWVRQAPGQRLEWMGWIDAGTGNTKYSQKFQGRVTITADESTSTAYMELSSLRSEDTAVYYCARDHYGHYFYDVWGQGTLVTVSS VL: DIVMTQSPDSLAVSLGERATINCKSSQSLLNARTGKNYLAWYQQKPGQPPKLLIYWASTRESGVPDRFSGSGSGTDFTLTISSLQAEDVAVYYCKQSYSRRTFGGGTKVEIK ?
58

May I ask what MFI pH 7.4 has been recorded for SAD10318_P03_D09 (ADI-48610) (antibody, V domains shown, IgG; also called Ab206) VH: QVQLVQSGAEVKKPGASVKVSCKASGFNIKDYHMHWVRQAPGQRLEWMGWIDLENANTIYDAKFQGRVTITRDTSASTAYMELSSLRSEDTAVYYCARDAHHRYFYDVWGQGTLVTVSS VL: DIVMTQSPDSLAVSLGERATINCKSSQSLLNAHTGKNHLAWYQQKPGQPPKLLIYWASTRESGVPDRFSGSGSGTDFTLTISSLQAEDVAVYYCKQSHSHRTFGGGTKVEIK ?
72

Numbers sourced from patent US20220380463A1.
